Test system: P388 leukemia ip, CD2F1 mice, survival T/C
experimental details: NCI In Vivo Anticancer Drug Screen. Data for tumor model P388 Leukemia (intraperitoneal) in CD2F1 (CDF1) mice
condition notes: endpoint: median survival time; dose: 200.0 mg/kg/injection; schedule: Q04DX003 (ip); vehicle: saline with Tween-80
Inconclusive results and toxic doses are left out. The calls were made as follows: active = survival T/C of 150% or more; inactive = T/C below 125% in these data.
Classes used: active, inactive

CO/C=C1\CC(=O)N(C)C1=O
inactive
Cc1ccc2c(c1)CN(C13CC4CC(CC(C4)C1)C3)CO2
inactive
Clc1ccc(-c2ncnc3c2Cc2ccccc2-3)cc1
inactive
CCOC(OCC)c1cccc([N+](=O)[O-])c1
inactive
COc1cc(/C=N\NC(=O)c2cccc(Cl)c2)ccc1N(CCCl)CCCl
active
Cc1cc(SCC(=O)c2ccc(Br)cc2)cc(C)[o+]1
inactive
CC(=O)c1cc(C)[nH]c1C
inactive
COc1cc(C=C(C(C)=O)C(C)=O)ccc1O
inactive
Cc1ccc2c(c1)C=CC(C#N)N2C(=O)OCc1ccccc1 (configuration not stated)
inactive
CCSc1nc(C=O)c(Cc2ccc(Br)cc2)c(=O)[nH]1
inactive
N#CSC/C(=N\Nc1ccc([N+](=O)[O-])cc1[N+](=O)[O-])c1ccccc1
inactive
N#Cc1cnn(C(N)=O)c1N
inactive
